- assayed system: EGFR L858R/T790M/C797S (Homo sapiens, UniProt P00533, C797S/L858R/T790M)
- Sequence (P00533 25-1210 T790M/C797S/L858R): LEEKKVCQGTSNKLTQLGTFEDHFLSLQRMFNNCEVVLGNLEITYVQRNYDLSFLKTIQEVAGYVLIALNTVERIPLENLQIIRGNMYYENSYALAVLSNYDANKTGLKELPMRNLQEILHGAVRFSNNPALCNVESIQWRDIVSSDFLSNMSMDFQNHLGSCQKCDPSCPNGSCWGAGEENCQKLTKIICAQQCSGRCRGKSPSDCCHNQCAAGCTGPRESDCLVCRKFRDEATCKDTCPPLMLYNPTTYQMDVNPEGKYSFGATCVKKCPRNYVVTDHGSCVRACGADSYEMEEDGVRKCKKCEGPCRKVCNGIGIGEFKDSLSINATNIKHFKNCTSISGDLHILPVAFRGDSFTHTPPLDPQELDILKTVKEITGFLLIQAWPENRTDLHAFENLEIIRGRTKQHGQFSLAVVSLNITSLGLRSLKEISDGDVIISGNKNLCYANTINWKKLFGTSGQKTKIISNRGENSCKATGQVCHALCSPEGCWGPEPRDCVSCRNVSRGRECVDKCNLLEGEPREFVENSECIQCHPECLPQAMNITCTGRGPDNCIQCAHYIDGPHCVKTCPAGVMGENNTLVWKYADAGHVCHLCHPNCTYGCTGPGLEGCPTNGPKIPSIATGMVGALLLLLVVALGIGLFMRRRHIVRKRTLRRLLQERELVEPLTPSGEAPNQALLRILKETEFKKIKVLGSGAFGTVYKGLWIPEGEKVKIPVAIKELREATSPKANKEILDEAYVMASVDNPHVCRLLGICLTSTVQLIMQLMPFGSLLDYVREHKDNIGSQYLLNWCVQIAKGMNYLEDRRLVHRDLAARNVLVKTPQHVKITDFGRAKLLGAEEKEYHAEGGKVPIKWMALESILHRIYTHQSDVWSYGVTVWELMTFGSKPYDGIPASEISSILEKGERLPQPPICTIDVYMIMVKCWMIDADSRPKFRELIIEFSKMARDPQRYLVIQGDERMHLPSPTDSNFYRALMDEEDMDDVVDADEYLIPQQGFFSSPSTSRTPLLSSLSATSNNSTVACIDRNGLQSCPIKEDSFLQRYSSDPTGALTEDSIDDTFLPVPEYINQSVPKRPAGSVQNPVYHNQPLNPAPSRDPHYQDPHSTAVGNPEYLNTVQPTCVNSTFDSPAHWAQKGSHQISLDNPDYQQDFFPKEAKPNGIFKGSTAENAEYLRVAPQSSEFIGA
- protocol description: Biochemical EGFR kinase inhibition assay (Lance Ultra TR-FRET), triple mutant L858R/T790M/C797S
- particulars: ATP at Km; read-out: IC50 L858R/T790M/C797S (nM), Km ATP
- Procedure: Biochemical EGFR kinase assays were conducted using Lance Ultra time-resolved fluorescence resonance energy transfer (TR-FRET) technology from Perkin-Elmer. […] Each kinase reactions were incubated at room temperature for 1 hour and then stopped by the addition of 4 μL of stop solution (10 mM EDTA). […] After 60 minutes incubation at room temperature the LANCE signal was measured on an EnVision Multilabel Reader (Perkin-Elmer). […]
Some molecules, each annotated with its measured IC50.
Expressed in nM, but write only the number.

For orientation, consider the following solved cases.
Q: GET IC50 | system: EGFR L858R/T790M/C797S (Homo sapiens, UniProt P00533, C797S/L858R/T790M) | item: CC1(CO)CCN(c2cc(Nc3ccnc(-c4cnn(S(=O)(=O)C5CC5)c4)n3)ncc2C#CCC(F)(F)F)CC1
A: 0.8

Q: GET IC50 | system: EGFR L858R/T790M/C797S (Homo sapiens, UniProt P00533, C797S/L858R/T790M) | item: O=S(=O)(C1CC1)n1cc(-c2nccc(Nc3cc(N[C@H]4CCC[C@H](O)C4)c(C#Cc4ccc(CN5CCOCC5)cc4)cn3)n2)cn1
A: 3.2

Consider now this further molecule.
Q: GET IC50 | system: EGFR L858R/T790M/C797S (Homo sapiens, UniProt P00533, C797S/L858R/T790M) | item: O=S(=O)(C1CC1)n1cc(-c2nccc(Nc3cc(NC[C@H]4CC[C@H](O)CC4)c(C#Cc4cnn(C(F)F)c4)cn3)n2)cn1
A: 0.3

---

- assayed system: EGFR L858R/C797S (Homo sapiens, UniProt P00533, C797S/L858R)
- Sequence (P00533 25-1210 C797S/L858R): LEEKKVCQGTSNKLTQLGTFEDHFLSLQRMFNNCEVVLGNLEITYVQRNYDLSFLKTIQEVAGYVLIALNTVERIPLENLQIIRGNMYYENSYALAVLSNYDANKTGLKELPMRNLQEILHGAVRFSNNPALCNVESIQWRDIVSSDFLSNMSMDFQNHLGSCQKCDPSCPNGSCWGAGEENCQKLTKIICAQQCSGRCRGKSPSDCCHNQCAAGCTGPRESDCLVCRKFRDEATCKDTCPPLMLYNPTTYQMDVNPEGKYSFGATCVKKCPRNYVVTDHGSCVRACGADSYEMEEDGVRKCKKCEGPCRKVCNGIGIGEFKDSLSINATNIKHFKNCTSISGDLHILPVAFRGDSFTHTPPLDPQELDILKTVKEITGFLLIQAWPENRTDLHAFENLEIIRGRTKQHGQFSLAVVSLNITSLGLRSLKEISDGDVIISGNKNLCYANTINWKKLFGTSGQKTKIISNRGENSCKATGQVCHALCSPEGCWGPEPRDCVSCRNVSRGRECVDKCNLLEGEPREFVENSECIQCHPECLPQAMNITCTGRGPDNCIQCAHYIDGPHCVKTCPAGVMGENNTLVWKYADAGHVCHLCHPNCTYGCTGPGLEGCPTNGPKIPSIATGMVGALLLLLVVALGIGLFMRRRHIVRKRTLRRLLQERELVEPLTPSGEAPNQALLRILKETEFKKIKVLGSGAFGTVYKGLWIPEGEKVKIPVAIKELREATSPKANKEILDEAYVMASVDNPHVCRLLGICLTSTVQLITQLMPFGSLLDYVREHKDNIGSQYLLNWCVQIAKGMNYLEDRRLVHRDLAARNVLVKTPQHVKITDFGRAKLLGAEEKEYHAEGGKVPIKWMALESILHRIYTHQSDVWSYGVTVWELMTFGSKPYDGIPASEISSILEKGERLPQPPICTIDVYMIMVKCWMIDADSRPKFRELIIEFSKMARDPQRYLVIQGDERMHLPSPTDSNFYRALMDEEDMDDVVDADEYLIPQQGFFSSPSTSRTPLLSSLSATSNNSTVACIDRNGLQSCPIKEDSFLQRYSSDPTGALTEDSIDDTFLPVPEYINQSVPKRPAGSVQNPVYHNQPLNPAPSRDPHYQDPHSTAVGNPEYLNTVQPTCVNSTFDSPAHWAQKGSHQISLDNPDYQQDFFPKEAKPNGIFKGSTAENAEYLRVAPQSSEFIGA
- protocol description: Biochemical EGFR kinase inhibition assay (Lance Ultra TR-FRET), double mutant L858R/C797S
- particulars: IC50 L858R/C797S (nM), 100 μM ATP
Assign labels as follows, please: Met for IC50 below 30 nM; Not met for IC50 equal to or exceeding 30 nM.

Field: example entries. Status: answers known.
Q: Consider the compound Cn1cc(C#Cc2cnc(Nc3ccnc(-c4cnn(S(=O)(=O)C5CC5)c4)n3)cc2N2CCC(F)(CO)CC2)cn1 . Is its IC50 strictly less than 30 nM?
A: Met

Q: Consider the compound CC1(CO)CCN(c2cc(Nc3ccnc(-c4cnn(S(=O)(=O)C5CC5)c4)n3)ncc2C#CCCN2CCOCC2)CC1 . Is its IC50 strictly less than 30 nM?
A: Met

Q: Consider the compound O=S(=O)(C1CC1)n1cc(-c2nccc(Nc3cc(N4C[C@H]5C[C@@]5(CO)C4)c(C#Cc4cnn(C(F)(F)F)c4)cn3)n2)cn1 . Is its IC50 strictly less than 30 nM?
A: Not met

Q: Consider the compound CC1(CO)CCN(c2cc(Nc3ccnc(-c4cnn(S(=O)(=O)C5CC5)c4)n3)ncc2C#Cc2cc(C(F)(F)F)n[nH]2)CC1 . Is its IC50 strictly less than 30 nM?
A: Not met

Q: Consider the compound CC(=O)C1CCN(c2cc(Nc3ccnc(-c4cnn(S(=O)(=O)C5CC5)c4)n3)ncc2C#Cc2cnn(C(F)(F)F)c2)CC1 . Is its IC50 strictly less than 30 nM?
A: Not met

Further cases:
Q: Consider the compound O=S(=O)(C1CC1)n1cc(-c2nccc(Nc3cc(N4CCC(CO)CC4)c(C#Cc4cnn(CCF)c4)cn3)n2)cn1 . Is its IC50 strictly less than 30 nM?
A: Met

Q: Consider the compound CC1(CO)CCN(c2cc(Nc3ccnc(-c4cnn(S(=O)(=O)C5CC5)c4)n3)ncc2C#Cc2nc(C(F)(F)F)cs2)CC1 . Is its IC50 strictly less than 30 nM?
A: Not met

Q: Consider the compound O=S(=O)(C1CC1)n1cc(-c2nccc(Nc3cc(NC4CCC(CO)CC4)c(C#CC4(F)CCOC4)cn3)n2)cn1 (stereo not drawn) . Is its IC50 strictly less than 30 nM?
A: Not met

Q: Consider the compound Cn1cc(C#Cc2cnc(Nc3ccnc(-c4cnn(S(=O)(=O)C5CC5)c4)n3)cc2N[C@H]2CC[C@@H](O)CC2)cn1 . Is its IC50 strictly less than 30 nM?
A: Met

Q: Consider the compound Cn1cc(C#Cc2cnc(Nc3ccnc(-c4cnn(S(=O)(=O)C5CC5)c4)n3)cc2N2CCC3(CCNC3=O)CC2)cn1 . Is its IC50 strictly less than 30 nM?
A: Met

Q: Consider the compound Cn1cc(C#Cc2cnc(Nc3ccnc(-c4cnn(S(=O)(=O)C5CC5)c4)n3)cc2N2CCC(N3CC(F)(F)C3)CC2)cn1 . Is its IC50 strictly less than 30 nM?
A: Not met

Q: Consider the compound CN(C)CCC1CCCN(c2cc(Nc3ccnc(-c4cnn(S(=O)(=O)C5CC5)c4)n3)ncc2C#Cc2cnn(C)c2)C1 (stereo not drawn) . Is its IC50 strictly less than 30 nM?
A: Met

Q: Consider the compound CC1(CO)CCN(c2cc(Nc3ccnc(-c4cnn(S(=O)(=O)C5CC5)c4)n3)ncc2C#Cc2ncc(CN3CCOCC3)cn2)CC1 . Is its IC50 strictly less than 30 nM?
A: Met

Q: Consider the compound CC(C)NC1CCN(c2cc(Nc3ccnc(-c4cnn(S(=O)(=O)C5CC5)c4)n3)ncc2C#Cc2cnn(C)c2)CC1 . Is its IC50 strictly less than 30 nM?
A: Not met

Q: Consider the compound O=C(N1CCC(C#Cc2cnc(Nc3ccnc(-c4cnn(S(=O)(=O)C5CC5)c4)n3)cc2NCC2CCC(O)CC2)C1)C(F)(F)F (stereo not drawn) . Is its IC50 strictly less than 30 nM?
A: Not met

Q: Consider the compound CN(C)CCn1cc(C#Cc2cnc(Nc3ccnc(-c4cnn(S(=O)(=O)C5CC5)c4)n3)cc2N2CCC(C)(CO)CC2)cn1 . Is its IC50 strictly less than 30 nM?
A: Met

Q: Consider the compound O=S(=O)(C1CC1)n1cc(-c2nccc(Nc3cc(N[C@@H]4CCC[C@H](O)C4)c(C#Cc4ccc(CN5CCOCC5)cc4)cn3)n2)cn1 . Is its IC50 strictly less than 30 nM?
A: Not met
